biological target: [^3 H]-imipramine binding to human platelet membranes (Homo sapiens); construct: from tissue; host or cells: human platelets (sonicated, washed membranes); experiment: Platelet Imipramine Binding: inhibition of [^3 H]-imipramine binding to human platelet membranes; conditions: 50 μl of 50 μM compound stock + 200 μl membrane/[^3 H]imipramine mixture; 60 minutes at 0° C.; 10 μM desmethylimipramine = 0% binding
Give yes when the value for inhibition at 10 µM is at least 90%. Give no when it is less.

Answered examples (5):
In [3]: df
Out[3]:
                                   compound  class
0  Cc1ccc([C@@]23CN(C)C[C@@H]2[C@@H]2C=C[C@H]3C2)cc1 (relative stereo)    yes
1  Clc1ccc([C@@]23CNC[C@@H]2[C@@H]2C=C[C@H]3C2)cc1 (relative stereo)    yes
2  COc1cccc([C@@]23CN(C)C[C@@H]2[C@@H]2C=C[C@H]3C2)c1 (relative stereo)     no
3  CN1C[C@@H]2[C@@H]3C=C[C@@H](C3)[C@]2(c2cccc(O)c2)C1 (relative stereo)     no
4  CN1C[C@@H]2C3CCC(CC3)[C@]2(c2ccc(Cl)c(Cl)c2)C1 (relative stereo)    yes

// query Given CN1C[C@@H]2C3CCC(CC3)[C@]2(c2ccc(F)c(F)c2)C1 (relative stereo) , state whether its inhibition at 10 µM is at least 90%.
// result yes

// query Given CN1C[C@@H]2[C@@H]3CC[C@@H](C3)[C@]2(c2ccc(N)cc2)C1 (relative stereo) , state whether its inhibition at 10 µM is at least 90%.
// result no

----------
Target: [^3 H]-imipramine binding to human platelet membranes (Homo sapiens, UniProt P31645)
Construct: from tissue; host or cells: human platelets (sonicated, washed membranes)
Sequence (P31645 whole entry): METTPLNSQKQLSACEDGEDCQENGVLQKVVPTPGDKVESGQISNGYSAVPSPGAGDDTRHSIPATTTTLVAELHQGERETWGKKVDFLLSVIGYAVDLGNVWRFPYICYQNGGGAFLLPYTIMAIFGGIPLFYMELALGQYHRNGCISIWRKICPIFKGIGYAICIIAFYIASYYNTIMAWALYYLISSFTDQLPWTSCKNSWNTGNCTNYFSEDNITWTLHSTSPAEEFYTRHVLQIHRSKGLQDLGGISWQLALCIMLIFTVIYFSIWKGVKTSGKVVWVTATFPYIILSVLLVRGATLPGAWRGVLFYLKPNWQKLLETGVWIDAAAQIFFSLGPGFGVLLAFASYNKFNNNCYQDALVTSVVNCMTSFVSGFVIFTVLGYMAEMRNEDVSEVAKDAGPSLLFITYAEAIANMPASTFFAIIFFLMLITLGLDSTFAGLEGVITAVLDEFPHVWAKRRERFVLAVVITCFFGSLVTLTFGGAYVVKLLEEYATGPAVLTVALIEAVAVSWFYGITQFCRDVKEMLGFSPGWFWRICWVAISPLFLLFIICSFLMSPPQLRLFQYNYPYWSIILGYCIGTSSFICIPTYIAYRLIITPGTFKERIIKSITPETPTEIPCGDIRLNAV
Test: Platelet Imipramine Binding: inhibition of [^3 H]-imipramine binding to human platelet membranes
Conditions: 50 μl of 50 μM compound stock + 200 μl membrane/[^3 H]imipramine mixture; 60 minutes at 0° C.; 10 μM desmethylimipramine = 0% binding
Procedure: The activity of the compounds of this invention as antidepressant agents was further verified in the following test which measures the ability of a test compound to inhibit [^3 H]-imipramine binding to human platelet membranes. Human platelet concentrates were diluted 1:20 with antiprotease containing buffer of the following composition: 0.005N potassium chloride 3 mN ethylenediaminetetraacetic acid 1 mN ethyleneglycol-bis-(β-aminoethyl ether)-N,N'-tetraacetic acid […]
property-name: inhibition at 10 µM (%)
# value in %; strip the unit string

A selection of reference data follows.
In [3]: df
Out[3]:
                                   compound        property_name  meas_value
0  CCN1C[C@@H]2C3CCC(CC3)[C@]2(c2ccc(Cl)c(Cl)c2)C1 (relative stereo)  inhibition at 10 µM          89
1  c1ccc([C@@]23CNC[C@@H]2[C@@H]2CC[C@H]3C2)cc1 (relative stereo) [fumarate]  inhibition at 10 µM          98
2  CN1C[C@@H]2[C@@H]3C=C[C@@H](C3)[C@]2(c2cccc(Cl)c2)C1 (relative stereo)  inhibition at 10 µM          86
3  Cc1ccc([C@@]23CNC[C@@H]2[C@@H]2C=C[C@H]3C2)cc1 (relative stereo)  inhibition at 10 µM          94
4  CN1C[C@@H]2[C@@H]3CC[C@@H](C3)[C@]2(c2ccc(F)c(F)c2)C1 (relative stereo)  inhibition at 10 µM          95

Okay, next one:
// query Form entry - test system: [^3 H]-imipramine binding to human platelet membranes (Homo sapiens, UniProt P31645); read-out: inhibition at 10 µM; compound: CN1C[C@@H]2[C@@H]3CC[C@@H](C3)[C@]2(c2ccc(Cl)cc2)C1 (relative stereo)
// result 91
